Target: human melanocortin receptor-4 (human) (UniProt P32245)
Sequence (P32245 whole entry): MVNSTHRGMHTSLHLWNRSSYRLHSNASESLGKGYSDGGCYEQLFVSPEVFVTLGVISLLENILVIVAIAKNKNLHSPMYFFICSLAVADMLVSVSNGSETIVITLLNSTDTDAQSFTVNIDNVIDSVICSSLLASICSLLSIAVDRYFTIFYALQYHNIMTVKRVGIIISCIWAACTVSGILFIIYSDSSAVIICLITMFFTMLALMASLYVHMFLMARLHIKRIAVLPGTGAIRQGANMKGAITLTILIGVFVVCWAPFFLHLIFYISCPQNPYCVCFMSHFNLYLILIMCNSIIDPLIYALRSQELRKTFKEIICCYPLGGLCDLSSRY
Test: competition with Eu-NDP-α-MSH, hMC4r HEK-293 membranes
result-type: Ki (nM)

I. RXXFRWX (N-terminal Ac; hGlu 2 (X); Dab 3 (X); D-Phe 4; Dab 7 (X); cyclo(hGlu 2-Dab 7); C-terminal NH2) [Peptide No. 127]
II. RXXFRWX (N-terminal Ac; Dab 2 (X); Dab 3 (X); D-Phe 4; hGlu 7 (X); cyclo(Dab 2-hGlu 7); C-terminal NH2) [Peptide No. 129]
Enquiry: Determine, for I and II , which has the greater value of Ki. # answer = label of selected item
Return: II
(II: 4 nM, I: 2 nM)
